Measured survival and reproduction score of individual entries
# System: Caenorhabditis elegans L1 (N2)
# measurement.protocol: survival and reproduction score of C. elegans L1 (0: 0-10 living worms, 1: 11-20, 2: 21-50, 3: >50, 4: overgrown) (score 0-4); higher = more worms, less nematicidal, active = 1 or less; extreme values may be limits of the assay
# assay.setup: 60 µM; 6 days; temperature: 20 °C
Provide a numeric answer; units are not to be included.

Returns the measured survival and reproduction score for the input compound. Input: COc1cccc(-c2nnc(SCc3ccccc3C)o2)c1
4

Returns the measured survival and reproduction score for the input compound. Input: COc1ccccc1OCc1nc(-c2ccc(Cl)cc2)no1
4

Returns the measured survival and reproduction score for the input compound. Input: Cc1ccccc1-c1nnc(SCc2ccccc2)o1
3

Returns the measured survival and reproduction score for the input compound. Input: Clc1ccc(SCc2nc(-c3ccccn3)no2)cc1
0.5

Returns the measured survival and reproduction score for the input compound. Input: COc1cccc(-c2noc(COc3cccc(C)c3)n2)c1
4

----------
Measured survival and reproduction score of individual entries
# Tested on: Caenorhabditis elegans L1 (N2)
# measurement.protocol: survival and reproduction score of C. elegans L1 (0: 0-10 living worms, 1: 11-20, 2: 21-50, 3: >50, 4: overgrown) (score 0-4); higher = more worms, less nematicidal, active = 1 or less; extreme values may be limits of the assay
# assay.setup: 60 µM; 6 days; temperature: 20 °C
Provide a numeric answer; units are not to be included.

molecule: Fc1ccc(-c2noc(-c3ccc(Cl)cc3)n2)cc1
survival and reproduction score: 1

Returns the measured survival and reproduction score for the input molecule. Input: Cc1ccc(-c2noc(COc3ccc(Cl)cc3C)n2)cc1
2

Returns the measured survival and reproduction score for the input molecule. Input: Brc1ccccc1-c1nc(-c2ccccc2)no1
0

Returns the measured survival and reproduction score for the input molecule. Input: Clc1ccccc1-c1nc(-c2ccc3c(c2)OCO3)no1
4

Returns the measured survival and reproduction score for the input molecule. Input: CCC(=O)Nc1ccccc1-c1nc(-c2ccncc2)no1
1

Returns the measured survival and reproduction score for the input molecule. Input: Cc1cc(OCc2nc(-c3ccncc3)no2)c(C)cc1Br
4

Returns the measured survival and reproduction score for the input molecule. Input: Cc1ccc(SCc2nc(-c3cccnc3)no2)cc1
1.5

Returns the measured survival and reproduction score for the input molecule. Input: O=C(Nc1ccccc1-c1nc(-c2cccnc2)no1)c1cc2ccccc2o1
4

Returns the measured survival and reproduction score for the input molecule. Input: Cc1ccc(-c2nc(-c3ccccc3)no2)cc1C
4

Returns the measured survival and reproduction score for the input molecule. Input: Cc1cccc(-c2noc(-c3ccc(Br)cc3)n2)c1
4

Returns the measured survival and reproduction score for the input molecule. Input: COc1cccc(CSc2nnc(-c3ccco3)n2C)c1
2

Returns the measured survival and reproduction score for the input molecule. Input: O=C(Nc1ccccc1-c1nc(-c2cccnc2)no1)c1ccccc1Cl
4

Returns the measured survival and reproduction score for the input molecule. Input: CCOC(=O)c1ccc(OCc2nc(-c3cccs3)no2)cc1
4

Returns the measured survival and reproduction score for the input molecule. Input: O=C(Nc1ccc(-c2noc(-c3ccc(Cl)cc3)n2)cc1)c1ccco1
0

Returns the measured survival and reproduction score for the input molecule. Input: COc1ccccc1NC(=O)CSc1nnc(-c2ccccc2)o1
3.5

Returns the measured survival and reproduction score for the input molecule. Input: Cc1ccc(OCc2nc(-c3ccncc3)no2)cc1C
4

Returns the measured survival and reproduction score for the input molecule. Input: COc1ccc(Cl)cc1-c1nc(-c2ccc3c(c2)OCO3)no1
4

Returns the measured survival and reproduction score for the input molecule. Input: O=C(c1ccccc1-c1nc(-c2ccccc2Cl)no1)N1CCCC1
4

Returns the measured survival and reproduction score for the input molecule. Input: N#Cc1ccc(CSc2nnc(-c3ccncc3)o2)cc1
4

Returns the measured survival and reproduction score for the input molecule. Input: Cc1ccc(-c2noc(COc3ccc(Cl)cc3)n2)cc1
4

// data source = the supplement of paper PMC11219838
